Where do these numbers come from? They come from ChEMBL document CHEMBL1159191.

# assayedSystem: Leukotriene B4 receptor 1 (Homo sapiens, UniProt Q15722)
# Sequence (Q15722 whole entry): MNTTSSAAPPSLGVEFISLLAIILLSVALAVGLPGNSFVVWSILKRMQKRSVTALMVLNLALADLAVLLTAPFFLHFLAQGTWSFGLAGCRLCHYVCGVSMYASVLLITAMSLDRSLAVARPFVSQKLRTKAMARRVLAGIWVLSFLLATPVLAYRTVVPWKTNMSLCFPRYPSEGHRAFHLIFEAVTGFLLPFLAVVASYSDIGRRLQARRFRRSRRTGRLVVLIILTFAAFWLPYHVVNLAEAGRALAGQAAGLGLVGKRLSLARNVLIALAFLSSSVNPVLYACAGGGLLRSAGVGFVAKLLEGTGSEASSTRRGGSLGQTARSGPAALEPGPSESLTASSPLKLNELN
# method: Binding affinity against human neutrophil Receptor.
reportedEndpoint: Ki (nM)
Give just the number in nM; leave the unit off.

// worked examples, Ki included
CCc1cc(CC)c(OCCCCCC(C)(C)c2nn[n-]n2)cc1O.[Na+] : 5.14
CCCc1cc(CC)c(OCCCCCC(C)(C)c2nn[nH]n2)cc1O : 5.53

Kindly consider the entry below.
Form field: reported Ki of `CCCCCCc1cc(CC)c(OCCCCCC(C)(C)c2nn[n-]n2)cc1O.[Na+]`
28.4
